Test system: Aspergillus niger
Experiment: Antifungal activity against Aspergillus niger MTCC 282 assessed as growth inhibition at 12.5 to 1000 ug/mL after 48 hr by broth dilution method
Assay type: functional, organism-based
Activity calls are given as the source filed them. No cut-off for these calls is given here.
Give one outcome, nothing more. List: yes for active, no for inactive

Example entries and their recorded answers appear below.
| Compound | Subject of test | Group label |
| --- | --- | --- |
| CC1=N/C(=C/c2ccccc2[N+](=O)[O-])C(=O)N1c1ccc(/C(C)=N/NC(N)=S)cc1 | Aspergillus niger | yes |
| CC1=N/C(=C/c2ccc(Cl)cc2)C(=O)N1c1ccc(/C(C)=N/NC(N)=S)cc1 | Aspergillus niger | yes |
| CC1=N/C(=C/c2ccccc2)C(=O)N1c1ccc(/C(C)=N/NC(N)=S)cc1 | Aspergillus niger | yes |

Input line: What did the test return for "CC(=O)c1ccc(N2C(=O)/C(=C\c3ccc(O)cc3)N=C2C)cc1" ?
Output line: no

Input line: What did the test return for "CC1=N/C(=C/c2ccccc2O)C(=O)N1c1ccc(/C(C)=N/NC(N)=S)cc1" ?
Output line: yes

Input line: What did the test return for "CC1=N/C(=C/c2ccc(C)cc2)C(=O)N1c1ccc(/C(C)=N/NC(N)=S)cc1" ?
Output line: yes

Input line: What did the test return for "CC1=N/C(=C/c2ccccc2Cl)C(=O)N1c1ccc(/C(C)=N/NC(N)=S)cc1" ?
Output line: yes

Input line: What did the test return for "CC(=O)c1ccc(N2C(=O)/C(=C\c3ccc(Cl)cc3)N=C2C)cc1" ?
Output line: no

Input line: What did the test return for "CC(=O)c1ccc(N2C(=O)/C(=C\c3ccccc3[N+](=O)[O-])N=C2C)cc1" ?
Output line: no
